- measured target: T1, VACV D8 protein (vaccinia virus, UniProt P04195 1-261)
- T1 sequence: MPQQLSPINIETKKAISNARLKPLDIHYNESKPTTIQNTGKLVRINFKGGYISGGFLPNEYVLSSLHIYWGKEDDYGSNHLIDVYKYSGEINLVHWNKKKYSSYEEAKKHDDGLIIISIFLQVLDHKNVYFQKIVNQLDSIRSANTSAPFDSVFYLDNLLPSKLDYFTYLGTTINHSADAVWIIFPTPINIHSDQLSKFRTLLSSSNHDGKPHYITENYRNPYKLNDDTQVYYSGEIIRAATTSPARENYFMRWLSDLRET
- assay text: cell-based or functional assay
So basically, if PRNT IC50, VACV MV+C' comes in under 0.3 µg/mL it's True, and if it's 0.3 µg/mL or more it's False.

Check out these entries, answers already filled in.
binder	label
VACV-128 (antibody, V domains shown, human IgG1, anti-D8) VH: EVQLVQSGAEVKKPGATVKISCKVSGYTFTDYYMHWVQQAPGKGLKWMGLLDPLDGETIYSEKFQGKVTITADTSTDTAYMELSSLRSEDTAVYYCARELTGYLNYWGQGTLVTVSS VL: DIQMTQSPSSLSASVGDRVTITCRASPGICNYLAWYQHKPGKVPKLLIYAASTLQSGVPSRFTGVGSGTNFTLTINNLPPENVATYYCQKYNSAPHTFGQGTKVDIK	False
VACV-249 (antibody, V domains shown, human IgG1, anti-D8) VH: QVQLVESGPGLVKPSQTLSLTCTVSGGSISRGIYYWSWIRQPAGKGLEWIGRIYTSGSTNYNPSLKSRVTISVDTSKNQFSLKLSSVTAADTAVYYCARDGWYGWYLDLWGRGTLVTVSS VL: EIVMTQSPATLSVSPGERATLSCRASQSVSSDLAWYQQKPGQAPRLLIYGASTRATGIPARFSGSGSGTEFTLTISSLQSEDFAVYYCQQYNNWPGTFGGGTKVDIK	True
VACV-136 (antibody, V domains shown, human IgG1, anti-D8) V domain 1: QVTLKESGPVLVNPTETLTLTCTVSGFSLSNARMRVSWIRQPPGKALEWLAHIFSNDEKSYSTSLKSRLTISKDTSKSQVVLTMTNMDPVDTASYYCARMRGEYNSYYFDSWGQGTLVTVS V domain 2: SYELTQPPSVSVSPGQTARITCSGDALPNQYAYWYQQKPGQAPVLVIYKDSERPSGIPERFSGSSSGTTVTLTISGVQAEDEADYYCQSADSSGTSVVFGGGTQVTV	False

Query binder follows.
Is it true that PRNT IC50, VACV MV+C' reported for VACV-304 (antibody, V domains shown, human IgG1, anti-D8) VH: EVQLVESGGGLVQPGGSLRLSCVVSGFTFSNYWMSWVRQAPGKGLEWVANIKQDGSKKYYVDSVTGRFTISRDNAKNSLYLQMNSLRAEDTAVYYCATLNLELAVDAISEALKWGQGTLVTVSS VL: SYELTQPPSVSVSPGQTARITCSGDALPKQFAYWYQQKPGQAPVVMIYKDSERPSGIPERFSGSSSGTTVTLTISGVQAEDEADYYCQSVDNSGTYEVFGGGTQLTVL is less than 0.3 µg/mL?
True
